Cited source: ChEMBL document CHEMBL1201862

Target: Peroxisome proliferator-activated receptor gamma/Nuclear receptor coactivator 1 (Homo sapiens)
Sequence (P37231 whole entry): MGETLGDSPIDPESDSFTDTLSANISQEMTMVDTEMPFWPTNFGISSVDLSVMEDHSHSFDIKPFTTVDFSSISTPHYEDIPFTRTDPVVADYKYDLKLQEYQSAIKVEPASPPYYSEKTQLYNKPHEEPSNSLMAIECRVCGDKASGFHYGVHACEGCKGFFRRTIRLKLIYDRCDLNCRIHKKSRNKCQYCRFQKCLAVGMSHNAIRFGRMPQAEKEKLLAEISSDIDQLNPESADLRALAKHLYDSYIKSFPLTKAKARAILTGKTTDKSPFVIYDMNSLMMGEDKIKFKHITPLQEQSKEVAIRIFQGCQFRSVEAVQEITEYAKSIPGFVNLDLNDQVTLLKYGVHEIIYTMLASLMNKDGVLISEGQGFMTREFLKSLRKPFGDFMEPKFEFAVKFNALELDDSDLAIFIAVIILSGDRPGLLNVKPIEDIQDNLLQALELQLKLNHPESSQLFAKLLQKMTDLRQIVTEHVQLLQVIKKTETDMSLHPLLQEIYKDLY
Sequence (Q15788 whole entry, further chain): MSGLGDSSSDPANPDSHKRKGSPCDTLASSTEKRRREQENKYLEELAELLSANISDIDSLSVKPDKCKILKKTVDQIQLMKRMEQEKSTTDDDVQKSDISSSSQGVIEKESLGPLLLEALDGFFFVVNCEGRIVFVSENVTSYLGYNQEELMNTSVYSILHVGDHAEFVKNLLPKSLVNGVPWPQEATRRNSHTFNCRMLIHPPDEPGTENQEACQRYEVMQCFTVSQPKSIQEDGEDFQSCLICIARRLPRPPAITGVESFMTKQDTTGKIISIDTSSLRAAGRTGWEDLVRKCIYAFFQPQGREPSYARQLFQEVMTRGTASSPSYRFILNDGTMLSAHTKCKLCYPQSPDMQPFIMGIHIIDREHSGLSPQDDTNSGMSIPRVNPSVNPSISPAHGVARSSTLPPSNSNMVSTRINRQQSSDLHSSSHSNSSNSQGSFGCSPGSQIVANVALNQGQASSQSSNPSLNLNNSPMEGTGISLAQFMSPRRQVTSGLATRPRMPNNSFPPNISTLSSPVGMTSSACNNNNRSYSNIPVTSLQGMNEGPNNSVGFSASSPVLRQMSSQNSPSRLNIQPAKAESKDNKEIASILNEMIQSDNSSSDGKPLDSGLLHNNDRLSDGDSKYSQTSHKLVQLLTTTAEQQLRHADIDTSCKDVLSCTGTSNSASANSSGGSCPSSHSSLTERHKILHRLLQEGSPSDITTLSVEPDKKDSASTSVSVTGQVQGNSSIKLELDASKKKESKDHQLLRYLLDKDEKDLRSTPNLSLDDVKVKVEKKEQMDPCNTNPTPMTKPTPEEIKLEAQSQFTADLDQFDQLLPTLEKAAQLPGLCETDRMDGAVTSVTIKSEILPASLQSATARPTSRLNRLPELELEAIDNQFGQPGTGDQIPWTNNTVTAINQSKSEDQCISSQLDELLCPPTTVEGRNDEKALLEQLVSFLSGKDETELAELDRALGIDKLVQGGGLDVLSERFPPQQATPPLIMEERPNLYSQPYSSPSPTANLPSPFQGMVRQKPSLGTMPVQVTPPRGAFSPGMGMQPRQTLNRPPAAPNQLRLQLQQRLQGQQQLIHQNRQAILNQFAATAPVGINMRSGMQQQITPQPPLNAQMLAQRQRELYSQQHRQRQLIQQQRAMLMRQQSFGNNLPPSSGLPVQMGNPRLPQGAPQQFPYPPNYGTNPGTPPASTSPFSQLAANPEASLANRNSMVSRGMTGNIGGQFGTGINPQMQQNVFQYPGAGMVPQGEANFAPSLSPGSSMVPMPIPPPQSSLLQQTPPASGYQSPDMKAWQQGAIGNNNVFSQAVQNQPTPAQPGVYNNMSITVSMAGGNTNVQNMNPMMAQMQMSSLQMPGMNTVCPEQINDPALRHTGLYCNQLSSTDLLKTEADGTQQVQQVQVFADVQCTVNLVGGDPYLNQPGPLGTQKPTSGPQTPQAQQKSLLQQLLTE
Assay: TR-FRET dose response biochemical High Throughput Screening assay for agonists of the steroid receptor coactivator 1 (SRC-1) recruitment by the peroxisome proliferator-activated receptor gamma (PPAR gamma): non-selective agonists. [Related pubchem assays (depositor defined):AID1300, AID1808, AID504735, AID631]
Assay type: protein assay
Active and inactive are the calls of the source. No stated cut-off is given here; in the data, active = EC50 of 10 µM or less and inactive = more.
Bench note: report the call from label 1 (active), label 0 (inactive)

Recorded results for 5 compounds are shown here.
N#Cc1c(-c2cccs2)nc(SCc2ccc(Cl)cc2)[nH]c1=O: label 0
CCCCNC(=O)CSc1nc(CCC)nc2ccccc12: label 0
Cc1cc(C(=O)OCC(=O)c2ccc(Br)s2)no1: label 0
CCOC(=O)c1sc(-c2ccc(OC)cc2)cc1NC(C)=O: label 0
CCn1c(=O)cc(SCC(=O)N(C)Cc2ccccc2)c2ccccc21: label 0

Enquiry: Name the outcome recorded for CSc1nc(Sc2ccccc2Cl)c2ccccc2n1 in the assay.
Return: label 0

Enquiry: Name the outcome recorded for O=C(CSc1ncnc2c1oc1ccccc12)Nc1cccc(F)c1 in the assay.
Return: label 0

Enquiry: Name the outcome recorded for CN1CCN(C(=O)CSc2cc(=O)n(C)c3ccccc23)CC1 in the assay.
Return: label 0

Enquiry: Name the outcome recorded for Cc1cc2cc(CNC(=O)c3ccc(S(=O)(=O)N4CCCC4)cc3)ccc2n1C in the assay.
Return: label 1

Enquiry: Name the outcome recorded for Cc1ccc(Cl)cc1-c1ccc(/C=N/c2ccc(N3CCOCC3)cc2)o1 in the assay.
Return: label 0

Enquiry: Name the outcome recorded for Cc1ccc(CNC(=O)CSc2c3c(nc4cc(Cl)ccc24)CCCC3)o1 in the assay.
Return: label 0
